Measured inhibition at 5 mg/kg, listed per entry.
experimental system: MAGL (Mus musculus)
Construct: Proteomes (mouse brain membrane fraction or cell lysates); from tissue; host or cells: mouse brain membrane fraction (or cell lysates)
Sequence (O35678 1-303): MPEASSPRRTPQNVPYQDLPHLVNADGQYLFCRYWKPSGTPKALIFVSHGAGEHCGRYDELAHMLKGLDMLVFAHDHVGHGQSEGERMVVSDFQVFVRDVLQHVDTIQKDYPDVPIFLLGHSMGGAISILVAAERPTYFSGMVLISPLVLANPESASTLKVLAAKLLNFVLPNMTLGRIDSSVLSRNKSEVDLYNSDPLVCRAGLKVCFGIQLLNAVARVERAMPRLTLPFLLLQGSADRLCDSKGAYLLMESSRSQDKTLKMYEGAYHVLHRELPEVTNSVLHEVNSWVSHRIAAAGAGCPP
assay name: Mouse brain proteomes from inhibitor treated mice (oral gavage, sacrificed 4 h after administration)
Assay type: in vivo
measurement setup: read-out: MAGL % inh. 5 mg/kg

{"columns": ["compound", "inhibition at 5 mg/kg"],
 "data": [
  ["CC(=O)Nc1ccn(C(=O)N2CCN(Cc3cccc(C(F)(F)F)c3-c3nnn[nH]3)CC2)n1", "0 to 25%"],
  ["CS(=O)(=O)Nc1ccn(C(=O)N2CCN(Cc3cccc(Cl)c3N3CCC4(CCOCC4)C3)CC2)n1", "50 to 75%"],
  ["CC(=O)Nc1ccn(C(=O)N2CCC3(CCCN3Cc3ccc(Cl)cc3N3CCC(F)CC3)CC2)n1", "0 to 25%"],
  ["CC(=O)Nc1ccn(C(=O)N2CCN(Cc3ccc(Cl)cc3N3CCN(C(C)=O)CC3)CC2)n1", "0 to 25%"],
  ["CC(=O)Nc1ccn(C(=O)N2CCC3(CCCN3Cc3cc(OC4CCS(=O)(=O)CC4)cc(C(F)(F)F)c3)CC2)n1", "0 to 25%"],
  ["CC(=O)Nc1ccn(C(=O)N2CCC3(CCCN3Cc3ccc(C(F)(F)F)cc3Oc3nc4ccccc4s3)CC2)n1", "0 to 25%"],
  ["CC(=O)Nc1ccn(C(=O)N2CCC3(CCCN3Cc3ccc(C(F)(F)F)cc3N3CC4COCC4C3)CC2)n1 (stereo not shown)", "25 to 50%"]
]}

====

experimental system: MAGL (Mus musculus, UniProt O35678)
Construct: Proteomes (mouse brain membrane fraction or cell lysates); from tissue; host or cells: mouse brain membrane fraction (or cell lysates)
assay name: In vitro competitive activity-based protein profiling (mouse), MAGL gel band
Type: biochemical
measurement setup: read-out: MAGL % inh. 1 μM
Below, each of the molecules is paired with its reported inhibition at 1 µM value.
readout label: inhibition at 1 µM

{"columns": ["molecular string", "endpoint result"],
 "data": [
  ["CS(=O)(=O)Nc1ccn(C(=O)N2CCN(Cc3ccc(C(F)(F)F)cc3N3CCOCC3)CC2)n1", "≥ 75%"],
  ["CS(=O)(=O)Nc1ccn(C(=O)N2CCN(Cc3cc(N4CCC4)cc(C(F)(F)F)c3)CC2)n1", "≥ 75%"],
  ["CS(=O)(=O)Nc1ccn(C(=O)N2CCN(Cc3ccc(N4CCOCC4)c(Cl)c3)CC2)n1", "25 to 50%"],
  ["CS(=O)(=O)Nc1ccn(C(=O)N2CCN(Cc3cc(N4CCN(S(C)(=O)=O)CC4)cc(C(F)(F)F)c3)CC2)n1", "25 to 50%"],
  ["COc1cc(-c2ccccc2)ccc1CN1CCN(C(=O)n2ccc(NS(C)(=O)=O)n2)CC1", "≥ 75%"],
  ["CS(=O)(=O)Nc1ccn(C(=O)N2CCC3(CCCN3Cc3cc(Cl)cc(N4CCCC4)c3)CC2)n1", "≥ 75%"],
  ["CS(=O)(=O)Nc1ccn(C(=O)N2CCN(Cc3ccc(Cl)c(OC4CCOCC4)c3)CC2)n1", "≥ 75%"],
  ["CS(=O)(=O)Nc1ccn(C(=O)N2CCN(Cc3ccc(N4CCCC4)c(Cl)c3)CC2)n1", "≥ 75%"],
  ["CS(=O)(=O)Nc1ccn(C(=O)N2CCN(Cc3ccc(C(F)(F)F)cc3-c3ncon3)CC2)n1", "≥ 75%"],
  ["CC(=O)Nc1ccn(C(=O)N2CCN(Cc3ccc(Cl)cc3N3CC4CCC(C3)O4)CC2)n1", "≥ 75%"],
  ["CS(=O)(=O)Nc1ccn(C(=O)N2CCN(Cc3ccc(C(F)(F)F)c(N4CCC(F)CC4)c3)CC2)n1", "≥ 75%"],
  ["CS(=O)(=O)Nc1ccn(C(=O)N2CCN(Cc3ccc(-c4ccccc4)cc3Cl)CC2)n1", "≥ 75%"],
  ["CS(=O)(=O)Nc1ccn(C(=O)N2CCC3(CCCN3Cc3cc(N4CCOCC4)cc(C(F)(F)F)c3)CC2)n1", "≥ 75%"],
  ["CS(=O)(=O)Nc1ccn(C(=O)N2CCC3(CCCN3Cc3cccc(N4CCOCC4)c3Cl)CC2)n1", "50 to 75%"],
  ["CC(=O)Nc1ccn(C(=O)N2CCN(Cc3ccc(C(F)(F)F)cc3OC3CCN(C4CC4)CC3)CC2)n1", "≥ 75%"]
]}

====

experimental system: MAGL (Mus musculus)
Construct: Proteomes (mouse brain membrane fraction or cell lysates)
assay name: In vitro competitive activity-based protein profiling (mouse), MAGL gel band
measurement setup: mouse
pIC50: −log10 of the molar value.
pIC50 overview

{"columns": ["molecular string", "pIC50"],
 "data": [
  ["CS(=O)(=O)Nc1ccn(C(=O)N2CCC3(CCCN3Cc3cccc(N4CCCCC4)c3Cl)CC2)n1", "6.00 to 7.00"],
  ["CC(=O)Nc1ccn(C(=O)N2CCN(Cc3ccc(Cl)cc3N3CCCC3)CC2)n1", "≥ 7.00"],
  ["Cc1ccc(CN2CCN(C(=O)n3ccc(NS(C)(=O)=O)n3)CC2)c(N2CCCCC2)c1", "6.00 to 7.00"],
  ["CC(=O)Nc1ccn(C(=O)N2CCC3(CCCN3Cc3ccc(C(F)(F)F)cc3N3CC4CCC(C3)O4)CC2)n1", "≥ 7.00"],
  ["CS(=O)(=O)Nc1ccn(C(=O)N2CCN(Cc3cc(N4CCCC4)cc(C(F)(F)F)c3)CC2)n1", "≥ 7.00"],
  ["CC(=O)Nc1ccn(C(=O)N2CCN(Cc3ccc(C(F)(F)F)cc3OC3CCN(C4CC4)CC3)CC2)n1", "≥ 7.00"],
  ["CS(=O)(=O)Nc1ccn(C(=O)N2CCC3(CCCN3Cc3ccc(C(F)(F)F)cc3N3C[C@H]4CC[C@@H](C3)O4)CC2)n1", "6.00 to 7.00"]
]}

====

experimental system: MAGL (Mus musculus)
Construct: Proteomes (mouse brain membrane fraction or cell lysates); from tissue; host or cells: mouse brain membrane fraction (or cell lysates)
Sequence (O35678 1-303): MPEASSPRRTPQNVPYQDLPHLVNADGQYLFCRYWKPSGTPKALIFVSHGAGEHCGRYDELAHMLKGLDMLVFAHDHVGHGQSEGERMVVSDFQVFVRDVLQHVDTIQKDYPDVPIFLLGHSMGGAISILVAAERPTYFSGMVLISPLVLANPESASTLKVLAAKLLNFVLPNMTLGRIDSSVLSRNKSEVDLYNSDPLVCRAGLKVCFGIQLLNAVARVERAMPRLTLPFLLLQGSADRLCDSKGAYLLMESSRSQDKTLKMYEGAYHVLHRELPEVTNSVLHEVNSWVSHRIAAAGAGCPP
assay name: In vitro competitive activity-based protein profiling (mouse), MAGL gel band
Assay type: biochemical
measurement setup: read-out: MAGL % inh. 1 μM

{"columns": ["compound", "inhibition at 1 µM"],
 "data": [
  ["CS(=O)(=O)Nc1ccn(C(=O)N2CCC3(CCCN3Cc3ccc(C(F)(F)F)cc3N3CCCC3)CC2)n1 [Example 125]", "≥ 75%"],
  ["CC(=O)Nc1ccn(C(=O)N2CCC3(CCCN3Cc3ccc(Cl)cc3N3CCC(F)CC3)CC2)n1 [Example 18]", "≥ 75%"],
  ["CC(=O)Nc1ccn(C(=O)N2CCN(Cc3ccc(Cl)cc3N3CCC4(CCOCC4)C3)CC2)n1 [Example 56]", "≥ 75%"],
  ["CS(=O)(=O)Nc1ccn(C(=O)N2CCN(Cc3cccc(Cl)c3N3CC[C@H](CF)C3)CC2)n1 [Example 121]", "≥ 75%"],
  ["CS(=O)(=O)Nc1ccn(C(=O)N2CCN(Cc3ccc(Cl)c(N4CCN(C5CC5)CC4)c3)CC2)n1 [Example 202]", "≥ 75%"],
  ["CS(=O)(=O)Nc1ccn(C(=O)N2CCN(Cc3ccc(C(F)(F)F)cc3C3CCN(CC(=O)O)CC3)CC2)n1 [Example 118]", "0 to 25%"],
  ["CS(=O)(=O)Nc1ccn(C(=O)N2CCN(Cc3ccc(C(F)(F)F)cc3-c3nnco3)CC2)n1 [Example 113]", "≥ 75%"],
  ["CN1CCC(Oc2cc(CN3CCN(C(=O)n4ccc(NS(C)(=O)=O)n4)CC3)ccc2Cl)CC1 [Example 220]", "25 to 50%"],
  ["CC(C)(O)C1CCN(c2cc(C(F)(F)F)ccc2CN2CCN(C(=O)n3ccc(NS(C)(=O)=O)n3)CC2)CC1 [Example 270]", "≥ 75%"],
  ["CS(=O)(=O)Nc1ccn(C(=O)N2CCN(Cc3ccc(C(F)(F)F)cc3N3CCC4(CC3)CCN(S(C)(=O)=O)C4)CC2)n1 [Example 234]", "≥ 75%"],
  ["CC(=O)Nc1ccn(C(=O)N2CCC3(CCCN3Cc3cc(N4CC5CN(C(C)=O)CC5C4)cc(C(F)(F)F)c3)CC2)n1 (stereo not drawn) [Example 69]", "≥ 75%"],
  ["CC(=O)Nc1ccn(C(=O)N2CCN(Cc3ccc(C(F)(F)F)cc3Oc3nc4ccccc4s3)CC2)n1 [Example 75]", "≥ 75%"],
  ["CS(=O)(=O)Nc1ccn(C(=O)N2CCC3(CCCN3Cc3cc(N4CCC(C(=O)O)C4)cc(C(F)(F)F)c3)CC2)n1 (stereo not drawn) [Example 247]", "0 to 25%"],
  ["CC1CCCN1c1cc(C(F)(F)F)ccc1CN1CCN(C(=O)n2ccc(NS(C)(=O)=O)n2)CC1 (stereo not drawn) [Example 189]", "≥ 75%"],
  ["CS(=O)(=O)Nc1ccn(C(=O)N2CCN(Cc3ccc(C(F)(F)F)cc3-c3nncs3)CC2)n1 [Example 114]", "≥ 75%"]
]}
